# System: HCC1569
# Test Method Notes: H1.0 immunofluorescence intensity relative to DMSO (% of DMSO); higher = stronger H1.0 induction, active = 140 or more
# Condition Info: concentration: 10 µM; 24 h
Let's look at some compounds and their measured H1.0 immunofluorescence intensity.
Reported Property: H1.0 immunofluorescence intensity

>>> df
                                   compound  recorded_measurement
0  O=C(COc1ccc(C(=O)c2ccccc2)cc1)NC1CCN(Cc2ccccc2)CC1 [2-(4-benzoylphenoxy)-N-(1-benzyl-4-piperidinyl)acetamide]                   158
1         Cn1c(=O)c2c(ncn2CC2OCCO2)n(C)c1=O                   104
2  COc1ccc2c(c1OC)C(=O)OC2C1c2c(cc3c(c2OC)OCO3)CCN1C (racemic)                  94.1
3  CCCCC1(C2CCCC2)Cc2cc(OCC(=O)O)c(Cl)c(Cl)c2C1=O (stereo not drawn) [R(+)-Butylindazone]                  91.3
4  CC(O)CCCC(O)C=CC1C(O)CC(O)C1CC=CCCCC(=O)O [19(R)-Hydroxy-prostaglandin F2a]                  95.9
5  CCOC(=O)c1cnc2c(cnn2CC)c1NN=C(C)C [Etazolate]                   103
6  Clc1ccc(CCC(Cn2ccnc2)Sc2c(Cl)cccc2Cl)cc1.O=[N+]([O-])O (configuration not stated) [Butoconazole nitrate]                   115

----------
# System: HCC1569
# Test Method Notes: cell number relative to DMSO (% of DMSO); higher = more cells (less growth inhibition / toxicity)
# Condition Info: concentration: 10 µM; 24 h
Assign label 1 to entries whose cell number meets or exceeds 100; assign label 0 to the rest.

                                   compound  assigned_category
0  CCCCCCCCC=CCCCCCCCCCCCC(=O)O [13(Z)-Docosenoic acid]            label 1
1  c1cc(OCCN2CCCCC2)cc(-c2n[nH]c3ccc(-c4ncn[nH]4)cc23)c1            label 0
2  COc1cc2c3cc1Oc1c(OC)c(OC)cc4c1C(Cc1ccc(O)c(c1)Oc1ccc(cc1)CC3N(C)CC2)N(C)CC4.Cl.Cl (stereo not drawn)            label 0
3  CCNC(=O)N1CCN(CCCC(c2ccc(F)cc2)c2ccc(F)cc2)CC1.Cl [Amperozide hydrochloride]            label 0
4  O=C(Nc1cccc(Nc2ncc(Br)c(NCCc3cnc[nH]3)n2)c1)N1CCCC1            label 0

----------
# Test system: TDF
# Test Method Notes: H1.0 immunofluorescence intensity relative to DMSO (% of DMSO); higher = stronger H1.0 induction, active = 120 or more
# Condition Info: concentration: 10 µM; 24 h
Outcome codes: Y (active), N (inactive)

>>> df
                                    compound  assigned_category
 0  CCc1c(CC(N)=O)c2cc(OCCCP(=O)(O)O)ccc2n1Cc1ccccc1                  N
 1  CN1CCc2cc3c(cc2C(=O)Cc2ccc4c(c2C1)OCO4)OCO3                  N
 2  CCCCNC(=O)NS(=O)(=O)c1ccc(C)cc1 [Tolbutamide]                  N
 3  COc1cc2c(cc1-c1c(C)noc1C)ncc1[nH]c(=O)n([C@H](C)c3ccccn3)c12                  Y
 4  CCCCCCCCCC(=O)NC(CN1CCOCC1)C(O)c1ccccc1 (racemic)                  N
 5  Cc1cccc(C#Cc2ccccc2)n1.Cl [6-Methyl-2-(phenylethynyl)pyridine hydrochloride]                  N
 6  CN1CCCN=C1C=Cc1cccs1.O=C(O)c1cc2ccccc2c(Cc2c(O)c(C(=O)O)cc3ccccc23)c1O [Pyrantel Pamoate]                  N
 7  CC(C[N+](C)(C)C)OC(N)=O (configuration not stated)                  N
 8  CC1(C)OC2CC3C4CC(F)C5=CC(=O)C=CC5(C)C4(F)C(O)CC3(C)C2(C(=O)CO)O1 (configuration not stated) [Fluocinolone acetonide]                  N
 9    Cc1ccc(-c2nn(C(C)(C)C)c3ncnc(N)c23)cc1                  N
10  O=C(CCN1CCN(C(=O)OCc2cc(Cl)cc(Cl)c2)CC1)c1ccc2[nH]c(=O)oc2c1                  N
11  NCCCCC(NC(CCc1ccccc1)C(=O)O)C(=O)N1CCCC1C(=O)O (configuration not stated)                  N
12  CCn1cc(C(=O)O)c(=O)c2cc(F)c(N3CCNC(C)C3)c(F)c21 (configuration not stated)                  N
13  CC12CCC3c4ccc(O)cc4CCC3C1CC(O)C2O (configuration not stated)                  N
14  CC1=C(C(=O)O)N2C(=O)C(NC(=O)C(N)c3ccccc3)C2SC1 (configuration not stated) [Cephalexin hydrate]                  N
15  CNCC(O)c1ccc(O)c(O)c1.O=C(O)C(O)C(O)C(=O)O (single isomer, unassigned; (-)) [(-)-Epinephrine bitartrate]                  N
16  O=C1c2c(O)ccc(O)c2C(=O)c2c(NCCNCCO)ccc(NCCNCCO)c21                  Y

----------
# Tested on: HCC1569
# Test Method Notes: H1.0 immunofluorescence intensity relative to DMSO (% of DMSO); higher = stronger H1.0 induction, active = 140 or more
# Condition Info: concentration: 10 µM; 24 h
Answer Criterion not met if H1.0 immunofluorescence intensity is under 100, and Criterion met if it is 100 or more.

                                   molecule  assigned_category
0  COc1cc(NC(C)CCCN)c2ncccc2c1 (centres undefined)      Criterion met
1  CC1=C(C(=O)O)N2C(=O)C(NC(=O)C(N)C3=CCC=CC3)C2SC1 (centres undefined)  Criterion not met
2  CC(C)CCNC(=O)C(CC(C)C)NC(=O)C1OC1C(=O)O (centres undefined)  Criterion not met
3         O=C(CCc1ccc(O)cc1)c1c(O)cc(O)cc1O      Criterion met
4  CC1CN(c2c(F)c(N)c3c(=O)c(C(=O)O)cn(C4CC4)c3c2F)CC(C)N1 (centres undefined)      Criterion met

----------
# System: TDF
# Test Method Notes: cell number relative to DMSO (% of DMSO); higher = more cells (less growth inhibition / toxicity)
# Condition Info: concentration: 10 µM; 24 h
Measured cell number, listed per entry.
Reported Property: cell number

Compound	Recorded Measurement
Cl.Cl.N=C(N)c1ccc(N)cc1 [4-Aminobenzamidine dihydrochloride]	102
Cl.Cl.Cl.NCCCCNCCCN [Spermidine trihydrochloride]	97.2
N#CCNC(=O)c1ccc(-c2ccnc(Nc3ccc(N4CCOCC4)cc3)n2)cc1	36.1
CCC1(O)CC2CN(CCc3c([nH]c4ccccc34)C(C(=O)OC)(c3cc4c(cc3OC)N(C)C3C(O)(C(N)=O)C(O)C5(CC)C=CCN6CCC43C65)C2)C1.O=S(=O)(O)O (configuration not stated) [Vindesine sulfate]	8.86
Cc1ccc(C(=O)COC(=O)c2cccc(NC(=O)c3ccc([N+](=O)[O-])cc3[N+](=O)[O-])c2)cc1	67.7
CC[N+](CC)(CC)CCOc1cccc(OCC[N+](CC)(CC)CC)c1OCC[N+](CC)(CC)CC	107
Cc1ccc(Cl)c(Nc2ccccc2C(=O)[O-])c1Cl.[Na+] [Meclofenamic acid sodium]	106

----------
Listing of entries alongside the reported cell number.
# Tested on: HCC1569
# Test Method Notes: cell number relative to DMSO (% of DMSO); higher = more cells (less growth inhibition / toxicity)
# Condition Info: concentration: 10 µM; 24 h
Counter-ions that a name gives are not always drawn.
Reported Property: cell number

Compound	Target Of Assay	Reported Property	Recorded Measurement
COc1cc(-c2oc3cc(O)cc(O)c3c(=O)c2OC2OC(CO)C(O)C(O)C2O)ccc1O (stereo unspecified) [Isorhamnetine-3-glucoside]	HCC1569	cell number	102
NCC(O)c1ccc(O)c(O)c1.O=C(O)C(O)C(O)C(=O)O (stereo not drawn) [L(-)-Norepinephrine bitartrate]	HCC1569	cell number	109
O=C1Nc2ccc(Br)cc2C1=Cc1cc2c([nH]1)CCCC2	HCC1569	cell number	94
CCCCCC=CCC=CCC=CCC=CCCCCCC(=O)O [7(Z), 10(Z), 13(Z), 16(Z)-Ocosatetraenoic Acid]	HCC1569	cell number	100
CC(=O)O.O=C(NCC1CCCCN1)c1cc(OCC(F)(F)F)ccc1OCC(F)(F)F (stereo unspecified) [Flecainide acetate]	HCC1569	cell number	102
COC(=O)N=NC=C1C=[N+]([O-])c2ccccc2N1O	HCC1569	cell number	104
CCC1(O)CC2CN(CCc3c([nH]c4ccccc34)C(C(=O)OC)(c3cc4c(cc3OC)N(C)C3C(O)(C(=O)OC)C(OC(C)=O)C5(CC)C=CCN6CCC43C65)C2)C1 (stereo unspecified)	HCC1569	cell number	53.6
CCOC(=O)[C@H](CCc1ccccc1)N[C@@H](C)C(=O)N1CCC[C@H]1C(=O)O.O=C(O)C=CC(=O)O	HCC1569	cell number	102
O=C(CCNNC(=O)c1ccncc1)NCc1ccccc1 [Nialamide]	HCC1569	cell number	103
NC(=S)c1ccc[n+](C2OC(COP(=O)([O-])OP(=O)(O)OCC3OC(n4cnc5c(N)ncnc54)C(OP(=O)([O-])O)C3O)C(O)C2O)c1.[Na+] (stereo unspecified) [Thio-NADP sodium]	HCC1569	cell number	94.1
NC(CO)(CO)CO.O=C(c1ccccc1)c1ccc2n1CCC2C(=O)O (stereo unspecified) [Ketorolac tris salt]	HCC1569	cell number	101
Cc1ccccc1C(C(=O)NC1CCCCC1)N(C(=O)Cn1ccnc1C)c1cccc(F)c1 (stereo unspecified)	HCC1569	cell number	94.3
CCCCCCN(CCCCCC)C(=O)Cc1c(-c2ccc(F)cc2)[nH]c2ccccc12 [N,N-Dihexyl-2-(4-fluorophenyl)indole-3-acetamide]	HCC1569	cell number	95.6
CCC1(O)CC2CN(CCc3c([nH]c4ccccc34)C(C(=O)OC)(c3cc4c(cc3OC)N(C=O)C3C(O)(C(=O)OC)C(OC(C)=O)C5(CC)C=CCN6CCC43C65)C2)C1.O=S(=O)(O)O (stereo unspecified) [Vincristine sulfate]	HCC1569	cell number	57.3
CN1CCCCC1CCN1c2ccccc2Sc2ccc(S(C)=O)cc21.O=S(=O)(O)c1ccccc1 (stereo unspecified) [Mesoridazine besylate]	HCC1569	cell number	103
NC1CCCCC1N.O=C([O-])C(=O)[O-].[Pt+2] (stereo unspecified)	HCC1569	cell number	87.5
COC(=O)Nc1nc2ccc(S(=O)c3ccccc3)cc2[nH]1 (stereo unspecified)	HCC1569	cell number	100
OC(CS)C(O)CS (stereo unspecified)	HCC1569	cell number	103
O=c1cc(N2CCNCC2)oc2c(-c3ccccc3)cccc12	HCC1569	cell number	101
CC(C)C[C@@H](C(=O)O)c1cc(-c2ccc(C(F)(F)F)cc2)cc(-c2ccc(C(F)(F)F)cc2)c1	HCC1569	cell number	98.7
O=C(O)c1ccc(SC2=NS(=O)(=O)c3ccccc32)cc1 [4-((1,1-dioxidobenzo[d]isothiazol-3-yl)thio)benzoic acid]	HCC1569	cell number	100
Cc1cc(CS(=O)(=O)c2ccccc2)cc(OCc2ccc(CN3CCC[C@@H]3CO)cc2)c1 [PF-543 hydrochloride]	HCC1569	cell number	95.8
NC(=O)C(=O)[O-].[Na+] [Sodium Oxamate]	HCC1569	cell number	102
CC(O)CCCC(O)C=CC1C(O)CC(O)C1CC=CCCCC(=O)O [19(R)-Hydroxy-prostaglandin F2a]	HCC1569	cell number	104
CCN1CCc2nc(N)oc2CC1.Cl.Cl [B-HT 933 dihydrochloride]	HCC1569	cell number	99.5
CCCCCCCCCCC1=C(C)C(=O)C(OC)=C(OC)C1=O	HCC1569	cell number	101
O=C1CN(N=Cc2ccc(-c3ccc([N+](=O)[O-])cc3)o2)C(=O)[N-]1.[Na+] [Dantrolene sodium]	HCC1569	cell number	100
CCCCCC(O)C=CC=CCC=CCC=CCCCC(=O)O (stereo unspecified)	HCC1569	cell number	103
CCN1CCN(c2cc3c(cc2F)c(=O)c(C(=O)O)cn3C2CC2)CC1	HCC1569	cell number	101
Br.Oc1ccc(C2CNCc3sccc32)cc1O (stereo unspecified)	HCC1569	cell number	100
Br.CN1CCc2c(cc(O)c(O)c2Cl)C(c2cccc(Cl)c2)C1 (stereo unspecified)	HCC1569	cell number	89.6
